B1: library; numbered along this chain (parent)
chain: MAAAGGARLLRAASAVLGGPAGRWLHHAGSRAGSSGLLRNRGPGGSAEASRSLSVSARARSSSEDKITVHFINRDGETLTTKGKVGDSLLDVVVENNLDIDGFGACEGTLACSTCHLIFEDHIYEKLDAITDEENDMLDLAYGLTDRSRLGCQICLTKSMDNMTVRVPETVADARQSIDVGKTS

Variants of: B1
Assay: scaled log2 fold change in cell abundance, elesclomol vs control (0 = silent mean, 1 = nonsense mean) (scaled log2 ratio); higher = higher viability under elesclomol (loss of FDX1 cuproptosis function);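 also: variant abundance is its share of total variant reads in each endpoint sample, from next-generation sequencing of the integrated ORF PCR-amplified out of genomic DNA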
Conditions: with ABC1 FDX1 KO; elesclomol 5 nM; glucose 10 mM; 14 days
Quantity measured: scaled log2 fold change

Would you please look over these solved cases?
Mutation descriptor | scaled log2 fold change
I130L | -0.083
A4V | -0.0619
A32Y | 0.0969
E125Q | -0.176
R74A | -0.255
L90S | -1
R149T | 1.01
L53Y | -0.194
V55C | 0.313
S148Y | 0.363

Note: attention shifts to another entry.
**Query** Field request: scaled log2 fold change | item: `A129R`
**Result** 0.464
